These data points were gathered from PubChem BioAssay (Tox21).

# PROTOCOL: qHTS assay to test for compound auto fluorescence at 535 nm (green) in HEK293 cells (AID 720680); note: % is set by controls: 0 for no effect and ±100 for the full control effect
# EXPERIMENTAL_PARAMETERS: green autofluorescence 485/535 nm; series mostly up to 91.3 µM
Activity calls are given as the source filed them. Calls come from the whole dose curve; as a rule, active = well fitted curve in the direction sought with a large enough effect in the repeat runs; inconclusive = weak or mixed curves; inactive = flat fitted curve, though single readings scatter.
OBSERVATION_TYPE: fluorescence, % of fluorescein

Worked set:
{"columns": ["MOLECULE", "fluorescence, % of fluorescein"],
 "data": [
  ["CN1CCCN(C(c2ccccc2)c2ccc(Cl)cc2)CC1 (stereo not given)", "inactive"],
  ["CC1=CC[C@@H]2C[C@H]1C2(C)C", "-0.149% [at 18.6 µM] (inactive)"],
  ["CCCc1nc2c(C)cc(-c3nc4ccccc4n3C)cc2n1Cc1ccc(-c2ccccc2C(=O)O)cc1", "inactive"],
  ["NC(=O)c1ccccc1[N+](=O)[O-]", "inactive"]
]}

Sure, the documented fluorescence, % of fluorescein for CC[C@@H](CO)NCCN[C@@H](CC)CO is -0.0101% [at 18.6 µM] (inactive)

Sure, the documented fluorescence, % of fluorescein for CC(=O)OCC(C)C is inactive

Sure, the documented fluorescence, % of fluorescein for COc1ccc(-c2cc(C(F)F)nn2-c2ccc(S(N)(=O)=O)cc2)cc1F is inactive

Sure, the documented fluorescence, % of fluorescein for CC[C@H]1OC(=O)[C@H](C)[C@@H](O[C@H]2C[C@@](C)(OC)[C@@H](O)[C@H](C)O2)[C@H](C)[C@@H](O[C@@H]2O[C@H](C)C[C@H](N(C)C)[C@H]2O)[C@](C)(O)C[C@@H](C)CN(C)[C@H](C)[C@@H](O)[C@]1(C)O is inactive

Sure, the documented fluorescence, % of fluorescein for Cc1ccc(N(CC2=NCCN2)c2cccc(O)c2)cc1 is inactive

Sure, the documented fluorescence, % of fluorescein for Nc1ccc(N=Nc2ccc(N)cc2)cc1 is inactive

###

# PROTOCOL: qHTS assay to test for compound auto fluorescence at 590 nm (red) in HepG2 cells (AID 720674); note: % is set by controls: 0 for no effect and ±100 for the full control effect
# EXPERIMENTAL_PARAMETERS: HepG2 autofluorescence, red 540/590 nm, 1 h; series mostly up to 91.3 µM
Activity calls are given as the source filed them. The call rests on the fitted dose curve; in most records, active means well fitted curve in the direction sought with a large enough effect in the repeat runs; inconclusive means weak or mixed curves; inactive means flat fitted curve, though single readings scatter.
OBSERVATION_TYPE: fluorescence, relative to Rose Bengal

{"columns": ["STRUCTURE_SMILES", "OBSERVATION_TYPE", "RECORDED_RESULT"],
 "data": [
  ["Nc1ccc(F)cc1", "fluorescence, relative to Rose Bengal", "inactive"],
  ["CC[C@H]1OC(=O)[C@H](C)[C@@H](O[C@H]2C[C@@](C)(OC)[C@@H](O)[C@H](C)O2)[C@H](C)[C@@H](O[C@@H]2O[C@H](C)C[C@H](N(C)C)[C@H]2O)[C@](C)(O)C[C@@H](C)C(=O)[C@H](C)[C@@H](O)[C@]1(C)O", "fluorescence, relative to Rose Bengal", "inactive"],
  ["CCCCCCCCCCCCCCN(C)C", "fluorescence, relative to Rose Bengal", "0.132% [at 18.6 µM] (inactive)"],
  ["CC(=O)OCC1=C(C(=O)O)N2C(=O)[C@@H](NC(=O)CSc3ccncc3)[C@H]2SC1", "fluorescence, relative to Rose Bengal", "inactive"]
]}

###

# PROTOCOL: qHTS assay to identify small molecule antagonists of the thyroid receptor (TR) signaling pathway - cell viability counter screen (AID 743064); note: nearly all actives have a fitted effect of over 50% in size
# EXPERIMENTAL_PARAMETERS: GH3.TRE-Luc viability, CellTiter-Fluor, 24 h; series mostly up to 70.3 µM
Inconclusive results are not listed. Active and inactive are the calls of the source. Calls follow the shape of the dose curve; as a rule, active = well fitted cell-killing curve with a large enough effect in the repeat runs; inconclusive = weak or mixed curves, or effect the other way; inactive = no such curve, though single readings can be large or run the other way.
// classify into active, inactive

Inquiry: Assay result, entry O=C(O)c1ccc(O)cc1O — outcome?
Reply text: inactive

Inquiry: Assay result, entry O=C(O)CCCc1c[nH]c2ccccc12 — outcome?
Reply text: inactive

Inquiry: Assay result, entry COC(OC)OC — outcome?
Reply text: inactive

Inquiry: Assay result, entry CC(C)(O)CCc1ccccc1 — outcome?
Reply text: inactive

Inquiry: Assay result, entry COc1ccc(-n2nc(C(F)F)cc2-c2ccc(S(C)=O)cc2)cc1 (stereo not given) — outcome?
Reply text: inactive

Inquiry: Assay result, entry COc1ccc(-c2cc(=S)ss2)cc1 — outcome?
Reply text: inactive

Inquiry: Assay result, entry CCCCCCCCCCCCCCCC(=O)OCC — outcome?
Reply text: inactive

Inquiry: Assay result, entry CC(=O)OCCC1CCCCC1 — outcome?
Reply text: inactive

Inquiry: Assay result, entry COc1cc(S(=O)(=O)Nc2ccccc2)c(OC)cc1N — outcome?
Reply text: inactive

Inquiry: Assay result, entry CS(=O)(=O)c1ccc([C@@H](C[C@H]2CCC(=O)C2)C(=O)Nc2cnccn2)cc1Cl — outcome?
Reply text: inactive

Inquiry: Assay result, entry COc1ccc(N)c([N+](=O)[O-])c1 — outcome?
Reply text: inactive

Inquiry: Assay result, entry O=C(C(=O)c1ccco1)c1ccco1 — outcome?
Reply text: inactive

Inquiry: Assay result, entry CC(C)(C(=O)c1cccnc1)c1cccnc1 — outcome?
Reply text: inactive

Inquiry: Assay result, entry CC(CN(CCN(CC(C)OCCO)CC(C)OCCO)CC(C)OCCO)OCCO (stereo not given) — outcome?
Reply text: inactive

Inquiry: Assay result, entry CCCCCCOC(=O)CCCCC — outcome?
Reply text: inactive

Inquiry: Assay result, entry CC(C)CC(O)CC(C)C — outcome?
Reply text: inactive

Inquiry: Assay result, entry O=CNNC=O — outcome?
Reply text: inactive

Inquiry: Assay result, entry O=C1OC[C@H](Cc2cccc(O)c2)[C@H]1Cc1cccc(O)c1 — outcome?
Reply text: inactive

Inquiry: Assay result, entry CCCCCCCCCCCCCOS(=O)(=O)O — outcome?
Reply text: inactive

Inquiry: Assay result, entry CC(C)C(=O)OCCOc1ccccc1 — outcome?
Reply text: inactive

Inquiry: Assay result, entry COc1cc(NC(C)CCCN)c2ncccc2c1 (stereo not given) — outcome?
Reply text: active

Inquiry: Assay result, entry CC(C)(O)c1coc(S(=O)(=O)NC(=O)Nc2c3c(cc4c2CCC4)CCC3)c1 — outcome?
Reply text: inactive

Inquiry: Assay result, entry O=[N+]([O-])c1ccc2ncccc2c1 — outcome?
Reply text: inactive

Inquiry: Assay result, entry COc1ccc(C)cc1 — outcome?
Reply text: inactive

Inquiry: Assay result, entry CC1CCc2nccnc21 (stereo not given) — outcome?
Reply text: inactive

Inquiry: Assay result, entry CC(C)OC(=O)c1ccccc1C(=O)OC(C)C — outcome?
Reply text: inactive

Inquiry: Assay result, entry CCC(CO)(CO)[N+](=O)[O-] — outcome?
Reply text: inactive

Inquiry: Assay result, entry CCC(C)(C)C(=O)O — outcome?
Reply text: inactive

Inquiry: Assay result, entry C=CC(=O)O — outcome?
Reply text: inactive

Inquiry: Assay result, entry N[C@@H](Cc1cc(I)c(O)c(I)c1)C(=O)O — outcome?
Reply text: inactive

###

# PROTOCOL: qHTS assay to identify small molecule agonists of the NFkB signaling pathway - cell viability counter screen (AID 1159515); note: % is set by controls: 0 for no effect and ±100 for the full control effect; nearly all actives have a fitted effect of over 55% in size
# EXPERIMENTAL_PARAMETERS: NFkB-bla ME-180 viability, CellTiter-Glo luminescence, 5 h; series mostly up to 61 µM
# Text: National Center for Advancing Translational Sciences [NCATS] NIH Chemical Genomics Center [NCGC] U.S. Environmental Protection Agency [EPA] National Institutes of Environmental Health Sciences [NIEHS] National Toxicology Program [NTP] U.S. Food and Drug Administration [FDA] Transcription factors and their stimulated target gene expression play pivotal roles across many cellular processes including responses to environmental stimuli. […]
Records with an inconclusive call do not appear. The source made the active and inactive calls. Calls follow the shape of the full dose curve.
OBSERVATION_TYPE: outcome

{"columns": ["COMPOUND", "outcome"],
 "data": [
  ["CC[C@@H](CO)NCCN[C@@H](CC)CO", "inactive"],
  ["O=C1c2ccccc2C(=O)c2c(O)ccc(O)c21", "inactive"],
  ["CC(C)C1CCC(C(=O)N[C@H](Cc2ccccc2)C(=O)O)CC1 (stereo partly specified)", "inactive"],
  ["CC(C)c1ccc(C(=O)N=C(N)N)cc1S(C)(=O)=O", "inactive"]
]}

Sure, the documented outcome for CC(CCc1ccc(O)cc1)NCCc1ccc(O)c(O)c1 (stereo unspecified) is inactive

Sure, the documented outcome for CSCC[C@H](NC(=O)[C@H](Cc1c[nH]c2ccccc12)NC(=O)CCNC(=O)OC(C)(C)C)C(=O)N[C@@H](CC(=O)O)C(=O)N[C@@H](Cc1ccccc1)C(N)=O is inactive
